Provenance of the data: the Deep4Chem optical property database

Can you tell me absorption maximum for the items I'm about to list?
assay: solvent given as SMILES; details: in CO
Reply with the number and its unit after it.

Consider the reported absorption maximum for these compounds:
>>> observed("COC(=O)c1cc(=O)n(C)c2cc(-c3ccc(OC)cc3)sc12")
"396 nm"
>>> observed("CC1(C)CC(NCc2ccc3ccc4cccc5ccc2c3c45)CC(C)(C)N1")
"374 nm"
>>> observed("COc1nc(Cl)nc(Nc2ccc3c4c(cccc24)C(=O)c2ccccc2-3)n1")
"414.94 nm"
>>> observed("CC1=[N+]2C(=C(c3c4ccccc4cc4ccccc34)c3ccc(C)n3[B-]2(F)F)C=C1")
"517 nm"

Parameter requested: absorption maximum. Apply to each item below.
1. CCC1=C(C)C2=Cc3cc(I)cn3[B-](F)(F)[N+]2=C1C
2. NS(=O)(=O)c1ccc(N2N=C(c3ccc(O)cc3)CC2c2ccc([N+](=O)[O-])cc2)cc1 (stereo not drawn)
3. COc1cccc(-n2c(-c3ccc(O)cc3)nc(C)c2C)c1
4. CCOC(=O)COc1ccc(/C=C/C2=C3c4ccccc4C(c4ccc[nH]4)=[N+]3[B-](F)(F)n3ccc(C)c32)cc1
5. Cc1ccc(/C=C(\c2ccccc2)c2nc3ccccc3o2)cc1

Response:
511.5 nm
351 nm
287 nm
580 nm
330 nm

Parameter requested: absorption maximum. Apply to each item below.
1. CN(C)c1ccc(-c2cc3c(ccc4c([N+](=O)[O-])cccc43)c(=O)o2)cc1
2. CCN(CC)c1ccc(C=Cc2nc3nc4ccccc4nc3s2)c(OC)c1
3. O=[N+]([O-])c1ccc(/C=C/c2cn(S(=O)(=O)c3ccccc3)c3ccccc23)cc1
4. Nc1ccccc1C(=O)O
5. O=Cc1ccc2ccc3cccc4ccc1c2c34
6. Oc1ccc2ccccc2c1-c1nc(-c2ccccc2)c2ccccn12

Response:
1. 439 nm
2. 485 nm
3. 367 nm
4. 334 nm
5. 389 nm
6. 343 nm

Parameter requested: absorption maximum. Apply to each item below.
1. N#C/C(=C\c1cn(-c2ccccc2)nc1-c1ccccc1)c1nc2ccccc2s1
2. Cc1ccc(/C=N/c2cc(C(C)C)c(O)cc2C)cc1
3. CCOC(=O)/C(C#N)=C\c1ccc2c(c1)c1ccccc1n2-c1ccc(C)cc1
4. CN(C)c1ccc(/C=C/c2nc3ccccc3o2)cc1

Response:
1. 377 nm
2. 344 nm
3. 391 nm
4. 390 nm
